System: SMN2-linked luciferase-reporter gene construct
Experiment: SMN splice reporter assay (SMN2-linked luciferase reporter, Example 10)
Format: cell-based
Settings: SMN2-linked luciferase reporter, average
recordedEndpoint: EC50 (µM)

compound: CCCCCc1ccc2c(c1)C(=O)N(c1ccc(C(C)C(=O)O)cc1)C2 (stereo not drawn) [ALB-113388]
unitName: µM
EC50: 1.11
--
compound: CC(C)OCC(C)c1ccc(N2Cc3ccccc3C2=O)cc1 (stereo not drawn) [ALB-114935]
unitName: µM
EC50: 0.977
--
compound: CC(C)NC(=O)C(C)c1ccc(N2Cc3ccccc3C2=O)cc1 (stereo not drawn) [ALB-112076]
unitName: µM
EC50: 1.37
